Origin of values: paper PMC6858373

- testedTarget: FGF14:Nav1.6 C-tail complex (Homo sapiens, UniProt Q92915+Q9UQD0)
- Construct: polymerase chain reaction (PCR) amplification of the FGF14 open reading frame (nt 1–855); C-terminal fragment of Nav1.6 (amino acids 1763–1976) fused with CD4ΔC-tail (amino acids 1–395); expressed in transfected cells
- Sequence (Q92915 1-252 isoform Q92915-2): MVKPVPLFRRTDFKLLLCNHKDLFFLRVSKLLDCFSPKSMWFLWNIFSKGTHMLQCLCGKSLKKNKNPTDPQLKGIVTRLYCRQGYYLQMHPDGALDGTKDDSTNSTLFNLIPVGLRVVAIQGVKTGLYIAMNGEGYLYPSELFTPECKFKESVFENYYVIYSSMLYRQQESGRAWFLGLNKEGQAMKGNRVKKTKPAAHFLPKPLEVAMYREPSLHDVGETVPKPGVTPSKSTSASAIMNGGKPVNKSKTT
- Sequence (Q9UQD0 1763-1976 limits assumed): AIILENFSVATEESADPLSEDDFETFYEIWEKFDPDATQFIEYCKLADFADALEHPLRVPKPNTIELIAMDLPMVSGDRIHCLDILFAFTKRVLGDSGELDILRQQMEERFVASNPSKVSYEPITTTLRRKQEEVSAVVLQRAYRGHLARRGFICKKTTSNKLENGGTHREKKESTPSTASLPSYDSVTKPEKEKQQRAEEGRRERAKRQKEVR
- protocolNotes: Split-luciferase complementation assay (LCA) in Clone V double stable HEK293 cells
- Type: cell-based
- appliedConditions: CC_NCI screening; average of Set 1 and Set 2; normalized to 0.3% DMSO controls
*1 amine or outer side, *2 acyl side, *3 side chain or, on linkers, in order; H or OH if unused. Where a SMILES comes first, the peptide text is derived from it. Bridges are numbered along the chain shown (N, C = ends). Roman numbers before positions name the chains, in order. [ ]: non-standard residue; d: D form. Actinocin(9to1) = Cc1c2oc3c(C)ccc(C(=O)[*:1])c3nc-2c(C(=O)[*:2])c(N)c1=O; NMeV = CN[C@H](C(=O)O)C(C)C; Sar = CNCC(=O)O
Mark 0 (no) for Split Luciferase Assay %Lum Avg values under 70%, and 1 (yes) for everything at or above.

**Q:** Could you please find out whether Nc1nc2[nH]cc(CCc3ccc(C(=O)N[C@@H](CCC(=O)O)C(=O)O)cc3)c2c(=O)[nH]1 has Split Luciferase Assay %Lum Avg that meets 70% or exceeds it?
**A:** 1 (yes)

**Q:** hey, is Split Luciferase Assay %Lum Avg for this one >= 70%? Cc1c(NC(=O)OC[C@@H]2COCCN2)cn2ncnc(Nc3ccc4c(cnn4Cc4cccc(F)c4)c3)c12
**A:** 0 (no)

**Q:** Threshold query (Split Luciferase Assay %Lum Avg >= 70%) on CC1=C(/C=C/C(C)=C/C=C/C(C)=C/C(=O)O)C(C)(C)CCC1
**A:** 1 (yes)

**Q:** hey, is Split Luciferase Assay %Lum Avg for this one >= 70%? Cc1ccc(-c2cc(C(F)(F)F)nn2-c2ccc(S(N)(=O)=O)cc2)cc1
**A:** 0 (no)

**Q:** Given CCCCCCCCCCCCSc1nc2c([nH]1)c(=O)n(C)c(=O)n2C , state whether its Split Luciferase Assay %Lum Avg is at least 70%.
**A:** 1 (yes)

**Q:** Hi team, for Cc1cc(Nc2ncc3cc(-c4c(Cl)cccc4Cl)c(=O)n(C)c3n2)ccc1F , is the recorded Split Luciferase Assay %Lum Avg at or above 70%?
**A:** 1 (yes)

**Q:** Decide: Split Luciferase Assay %Lum Avg of Cc1cccc(Nc2nc(-c3ccncc3)cs2)c1 >= 70%?
**A:** 0 (no)

**Q:** Answer whether Split Luciferase Assay %Lum Avg of Cc1[nH]c(/C=C2\C(=O)Nc3ccc(S(=O)(=O)N(C)c4cccc(Cl)c4)cc32)c(C)c1C(=O)N1CCN(C)CC1 is greater than or equal to 70%.
**A:** 1 (yes)

**Q:** Please indicate if the recorded Split Luciferase Assay %Lum Avg for CC(C)(C#N)c1cc(Cn2cncn2)cc(C(C)(C)C#N)c1 meets or exceeds 70%.
**A:** 1 (yes)

**Q:** Evaluate O=C(CCCCCCC(=O)Nc1ccccc1)NO : Split Luciferase Assay %Lum Avg at minimum 70%?
**A:** 1 (yes)

**Q:** Evaluate OCCn1cc(-c2cnc3nnn(Cc4ccc5ncccc5c4)c3n2)cn1 : Split Luciferase Assay %Lum Avg at minimum 70%?
**A:** 1 (yes)

**Q:** Can N#Cc1ccc(C(c2ccc(C#N)cc2)n2cncn2)cc1 be said to have Split Luciferase Assay %Lum Avg at or above 70%?
**A:** 1 (yes)

**Q:** Check this compound for Split Luciferase Assay %Lum Avg at or above 70%: O=C(Nc1cccc(Nc2ncc(Br)c(NCCc3cnc[nH]3)n2)c1)N1CCCC1 [BX 912, reference compound]
**A:** 0 (no)

**Q:** Is it the case that Cc1ccc(F)c(NC(=O)Nc2ccc(-c3cccc4[nH]nc(N)c34)cc2)c1 has Split Luciferase Assay %Lum Avg reaching or exceeding 70%?
**A:** 0 (no)

**Q:** Is Split Luciferase Assay %Lum Avg at least 70%? Consider COc1cc2ncnc(Nc3ccc(F)c(Cl)c3)c2cc1OCCCN1CCOCC1
**A:** 1 (yes)

**Q:** Is Split Luciferase Assay %Lum Avg for CNC(=O)c1cc(Oc2ccc(NC(=O)Nc3ccc(Cl)c(C(F)(F)F)c3)cc2)ccn1 [Sorafenib, reference compound] at or above 70%?
**A:** 0 (no)

**Q:** Check this compound for Split Luciferase Assay %Lum Avg at or above 70%: CN(C)S(=O)(=O)c1ccc2c(c1)/C(=C/c1cc3c([nH]1)CCCC3)C(=O)N2
**A:** 1 (yes)

**Q:** Does the reported Split Luciferase Assay %Lum Avg for CO[C@H]1/C=C\C=C(/C)C(=O)NC2=CC(=O)C(NCCN(C)C)=C(C[C@@H](C)C[C@H](OC)[C@H](O)[C@@H](C)/C=C(\C)[C@@H]1OC(N)=O)C2=O fall at or above the 70% mark?
**A:** 0 (no)

**Q:** Tell me whether Split Luciferase Assay %Lum Avg is at least 70% here: O=C(c1cc(Cc2n[nH]c(=O)c3ccccc23)ccc1F)N1CCN(C(=O)C2CC2)CC1
**A:** 1 (yes)

**Q:** hey, is Split Luciferase Assay %Lum Avg for this one >= 70%? COc1cc2c(cc1OC)[C@@H]1C(=O)c3ccc4c(c3O[C@@H]1CO2)C=CC(C)(C)O4
**A:** 0 (no)

**Q:** Decide: Split Luciferase Assay %Lum Avg of CCN(CC)CCNC(=O)c1c(C)[nH]c(/C=C2\C(=O)Nc3ccc(F)cc32)c1C [SUNITINIB] >= 70%?
**A:** 1 (yes)

**Q:** Given C=C(c1ccc(C(=O)O)cc1)c1cc2c(cc1C)C(C)(C)CCC2(C)C , state whether its Split Luciferase Assay %Lum Avg is at least 70%.
**A:** 1 (yes)

**Q:** hey, is Split Luciferase Assay %Lum Avg for this one >= 70%? O=C(/C=C/c1ccc(CN(CCO)CCc2c[nH]c3ccccc23)cc1)NO
**A:** 1 (yes)

**Q:** Is Split Luciferase Assay %Lum Avg at least 70%? Consider CO[C@H]1C[C@@H]2CC[C@@H](C)[C@@](O)(O2)C(=O)C(=O)N2CCCC[C@H]2C(=O)O[C@H]([C@H](C)C[C@@H]2CC[C@@H](O)[C@H](OC)C2)CC(=O)[C@H](C)/C=C(\C)[C@@H](O)[C@@H](OC)C(=O)[C@H](C)C[C@H](C)/C=C/C=C/C=C/1C
**A:** 1 (yes)

**Q:** Is the recorded value of Split Luciferase Assay %Lum Avg equal to or greater than 70% for this compound? O=[As]O[As]=O (centres unmarked) [Arsenic trioxide]
**A:** 0 (no)

**Q:** Does Split Luciferase Assay %Lum Avg meet or surpass 70% for Clc1ccc(Nc2nnc(Cc3ccncc3)c3ccccc23)cc1 ?
**A:** 0 (no)

**Q:** Reported Split Luciferase Assay %Lum Avg at or above 70%? Cc1c2oc3c(C)ccc(C(=O)N[C@@H]4C(=O)N[C@H](C(C)C)C(=O)N5CCC[C@H]5C(=O)N(C)CC(=O)N(C)[C@@H](C(C)C)C(=O)O[C@@H]4C)c3nc-2c(C(=O)N[C@@H]2C(=O)N[C@H](C(C)C)C(=O)N3CCC[C@H]3C(=O)N(C)CC(=O)N(C)[C@@H](C(C)C)C(=O)O[C@@H]2C)c(N)c1=O [Dactinomycin] (I: T[dV]P[Sar][NMeV] / II: T[dV]P[Sar][NMeV]; ester I:1-I:C, II:1-II:C; linker I:N-II:N via Actinocin(9to1))
**A:** 0 (no)

**Q:** Does the compound COc1ccc(Cl)cc1[C@]1(F)C(=O)Nc2cc(C(F)(F)F)ccc21 have recorded Split Luciferase Assay %Lum Avg that is 70% or more?
**A:** 0 (no)

**Q:** Item C[C@@H](N)[C@H]1CC[C@H](C(=O)Nc2ccncc2)CC1 with Split Luciferase Assay %Lum Avg of 70% or above?
**A:** 1 (yes)

====

- testedTarget: FGF14:Nav1.6 C-tail complex (Homo sapiens, UniProt Q92915+Q9UQD0)
- Construct: polymerase chain reaction (PCR) amplification of the FGF14 open reading frame (nt 1–855); C-terminal fragment of Nav1.6 (amino acids 1763–1976) fused with CD4ΔC-tail (amino acids 1–395); expressed in transfected cells
- protocolNotes: Split-luciferase complementation assay (LCA) in Clone V double stable HEK293 cells
- Assay type: cell-based
- appliedConditions: CC_NCI screening, biological replicate Set 2; normalized to on-plate 0.3% DMSO controls (n=16 per plate)
propertyLabel: Split Luciferase Assay %Lum Set 2 (%)
Report the figure in % without appending any unit label.

**Q:** Dear colleague, please send me the reported Split Luciferase Assay %Lum Set 2 for CC1(C)CNc2cc(NC(=O)c3cccnc3NCc3ccncc3)ccc21 [MOTESANIB] when you can.
**A:** 89.47

**Q:** Using the record for CC(=O)O[C@@]12CO[C@@H]1C[C@H](O)[C@@]1(C)C(=O)[C@H](O)C3=C(C)[C@@H](OC(=O)[C@H](O)[C@@H](NC(=O)OC(C)(C)C)c4ccccc4)C[C@@](O)([C@@H](OC(=O)c4ccccc4)[C@H]21)C3(C)C [Docetaxel] , state its measured Split Luciferase Assay %Lum Set 2.
**A:** 155.01

**Q:** Respond only with Split Luciferase Assay %Lum Set 2 recorded for O=C(CCCCCCC(=O)Nc1ccccc1)NO [VORINOSTAT]
**A:** 75.94

**Q:** Tell me Split Luciferase Assay %Lum Set 2 reported for C#Cc1cccc(Nc2ncnc3cc(OCCOC)c(OCCOC)cc23)c1 [ERLOTINIB]
**A:** 81.14
